Each record here notes measured residual activity.
- subject_of_test: Serine/threonine-protein kinase PAK 5 (Homo sapiens)
- condition_set: at 1 µM
reported_metric: residual activity (%)

- structure_as_smiles: "Oc1c2ccccc2c2c3c(cccc13)N=N2"
  subject_of_test: "Serine/threonine-protein kinase PAK 5 (Homo sapiens)"
  observed_result: 99
- structure_as_smiles: "O=c1cc(-c2cccc3c2Sc2ccccc2S3)oc(N2CCOCC2)c1"
  subject_of_test: "Serine/threonine-protein kinase PAK 5 (Homo sapiens)"
  observed_result: 108
- structure_as_smiles: "Cc1cncc2cccc(S(=O)(=O)N3CCCN(C(=O)CN)C[C@H]3C)c12"
  subject_of_test: "Serine/threonine-protein kinase PAK 5 (Homo sapiens)"
  observed_result: 86
- structure_as_smiles: "O=C1NC(=O)c2cc(Nc3ccc(F)cc3)c(Nc3ccc(F)cc3)cc21"
  subject_of_test: "Serine/threonine-protein kinase PAK 5 (Homo sapiens)"
  observed_result: 98
- structure_as_smiles: "CC#CC(=O)Nc1cc2c(Nc3ccc(F)c(Cl)c3)ncnc2cn1"
  subject_of_test: "Serine/threonine-protein kinase PAK 5 (Homo sapiens)"
  observed_result: 104
- structure_as_smiles: "COc1ccc(C(=O)Nc2sc3c(c2C(N)=O)CCCC3)cc1OC"
  subject_of_test: "Serine/threonine-protein kinase PAK 5 (Homo sapiens)"
  observed_result: 104
- structure_as_smiles: "COc1cc2ncnc(Nc3ccc(O)c(Br)c3)c2cc1OC"
  subject_of_test: "Serine/threonine-protein kinase PAK 5 (Homo sapiens)"
  observed_result: 98
- structure_as_smiles: "Nc1n[nH]c2nnc(-c3c(-c4ccccc4)nn4ccccc34)cc12"
  subject_of_test: "Serine/threonine-protein kinase PAK 5 (Homo sapiens)"
  observed_result: 112
- structure_as_smiles: "Nc1cccc(-c2cc3c(Oc4cccc(O)c4)ncnc3[nH]2)c1"
  subject_of_test: "Serine/threonine-protein kinase PAK 5 (Homo sapiens)"
  observed_result: 87
- structure_as_smiles: "CC(=O)c1ccc(N2CCOCC2)cc1O"
  subject_of_test: "Serine/threonine-protein kinase PAK 5 (Homo sapiens)"
  observed_result: 97
- structure_as_smiles: "CCN(CC)C(=O)c1ccc(Nc2nc(OCC3CCCCC3)c3nc[nH]c3n2)cc1"
  subject_of_test: "Serine/threonine-protein kinase PAK 5 (Homo sapiens)"
  observed_result: 43
- structure_as_smiles: "Cc1cccc(-c2[nH]c(C(C)(C)C)nc2-c2ccc3c(c2)OCO3)n1"
  subject_of_test: "Serine/threonine-protein kinase PAK 5 (Homo sapiens)"
  observed_result: 87
- structure_as_smiles: "Cn1cc(/C=C2\\C(=O)Nc3ccc(S(N)(=O)=O)cc32)c2ccccc21"
  subject_of_test: "Serine/threonine-protein kinase PAK 5 (Homo sapiens)"
  observed_result: 41
- structure_as_smiles: "CC(=O)O/N=C1\\C(=C2\\C(=O)Nc3cc(Br)ccc32)Nc2ccccc21"
  subject_of_test: "Serine/threonine-protein kinase PAK 5 (Homo sapiens)"
  observed_result: 88
- structure_as_smiles: "CN(C)c1ccc(/C=C2\\C(=O)Nc3ccccc32)cc1"
  subject_of_test: "Serine/threonine-protein kinase PAK 5 (Homo sapiens)"
  observed_result: 95
- structure_as_smiles: "NC(=O)c1ccc2[nH]c(-c3ccc(Oc4ccc(Cl)cc4)cc3)nc2c1"
  subject_of_test: "Serine/threonine-protein kinase PAK 5 (Homo sapiens)"
  observed_result: 99
- structure_as_smiles: "CC(C)n1cnc2/c(=N/c3cccc(Cl)c3)nc(NCCO)[nH]c21"
  subject_of_test: "Serine/threonine-protein kinase PAK 5 (Homo sapiens)"
  observed_result: 80
- structure_as_smiles: "N#CCCc1ccc2c(c1)-c1[nH]c3ccc([N+](=O)[O-])cc3c1CC(=O)N2"
  subject_of_test: "Serine/threonine-protein kinase PAK 5 (Homo sapiens)"
  observed_result: 16
- structure_as_smiles: "COc1cc2ncnc(N3CCN(C(=O)Nc4ccc(Oc5ccccc5)cc4)CC3)c2cc1OC"
  subject_of_test: "Serine/threonine-protein kinase PAK 5 (Homo sapiens)"
  observed_result: 91
- structure_as_smiles: "CO[C@@H]1[C@H](N(C)C(=O)c2ccccc2)C[C@H]2O[C@]1(C)n1c3ccccc3c3c4c(c5c6ccccc6n2c5c31)C(=O)NC4"
  subject_of_test: "Serine/threonine-protein kinase PAK 5 (Homo sapiens)"
  observed_result: 52
- structure_as_smiles: "Oc1ccc(Nc2nc(-c3ccc(Cl)cc3)cs2)cc1"
  subject_of_test: "Serine/threonine-protein kinase PAK 5 (Homo sapiens)"
  observed_result: 106
- structure_as_smiles: "O=C(O)c1ccc2c3c1cccc3c(=O)n1c3ccccc3nc21"
  subject_of_test: "Serine/threonine-protein kinase PAK 5 (Homo sapiens)"
  observed_result: 100
- structure_as_smiles: "c1ccc2c(-c3ccncc3)c[nH]c2c1"
  subject_of_test: "Serine/threonine-protein kinase PAK 5 (Homo sapiens)"
  observed_result: 97
- structure_as_smiles: "COc1cc2ncnc(Nc3ccc(Oc4ccccc4)cc3)c2cc1OC"
  subject_of_test: "Serine/threonine-protein kinase PAK 5 (Homo sapiens)"
  observed_result: 108
- structure_as_smiles: "O=c1c2ccccc2[nH]c(=S)n1CCN1CCC(=C(c2ccc(F)cc2)c2ccc(F)cc2)CC1"
  subject_of_test: "Serine/threonine-protein kinase PAK 5 (Homo sapiens)"
  observed_result: 84
- structure_as_smiles: "O=C1Nc2cc(Br)ccc2/C1=C1/Nc2ccccc2/C1=N\\O"
  subject_of_test: "Serine/threonine-protein kinase PAK 5 (Homo sapiens)"
  observed_result: 39
- structure_as_smiles: "O=C1c2ccccc2-[n+]2ccc3c([nH]c4ccccc43)c21"
  subject_of_test: "Serine/threonine-protein kinase PAK 5 (Homo sapiens)"
  observed_result: 82
- structure_as_smiles: "CCN(CC)CCCCN1c2ccccc2Oc2ccc(Cl)cc21"
  subject_of_test: "Serine/threonine-protein kinase PAK 5 (Homo sapiens)"
  observed_result: 100
- structure_as_smiles: "Nc1nc(Nc2ccc(S(N)(=O)=O)cc2)nn1C(=S)Nc1c(F)cccc1F"
  subject_of_test: "Serine/threonine-protein kinase PAK 5 (Homo sapiens)"
  observed_result: 9
- structure_as_smiles: "Cc1ccc(S(=O)(=O)/C=C/C#N)cc1"
  subject_of_test: "Serine/threonine-protein kinase PAK 5 (Homo sapiens)"
  observed_result: 106
- structure_as_smiles: "c1ccc(-c2n[nH]c3c2oc2ccccc23)cc1"
  subject_of_test: "Serine/threonine-protein kinase PAK 5 (Homo sapiens)"
  observed_result: 83
- structure_as_smiles: "O=C1NC(=O)/C(=C/c2ccc3c(c2)OC(F)(F)O3)S1"
  subject_of_test: "Serine/threonine-protein kinase PAK 5 (Homo sapiens)"
  observed_result: 80
- structure_as_smiles: "COc1cccc(-c2cc(=O)c3ccccc3o2)c1N"
  subject_of_test: "Serine/threonine-protein kinase PAK 5 (Homo sapiens)"
  observed_result: 122
- structure_as_smiles: "Cn1nc2c3c(cccc31)C(=O)c1ccccc1-2"
  subject_of_test: "Serine/threonine-protein kinase PAK 5 (Homo sapiens)"
  observed_result: 86
- structure_as_smiles: "CCC(=O)Nc1ccc2ncnc(Nc3cccc(Br)c3)c2c1"
  subject_of_test: "Serine/threonine-protein kinase PAK 5 (Homo sapiens)"
  observed_result: 97

The values you see were collected from ChEMBL document CHEMBL2218924.
